- ASSAY PROTOCOL: In vivo rat PK (CSF/plasma and brain/plasma ratio of tafamidis)
- MEASUREMENT SETUP: male, Sprague-Dawley, brain and plasma, oral dose of 2 mg/kg of tafamidis, reference
ATTRIBUTE MEASURED: Kp at 24 h

In: Give the value of Kp at 24 h reported for the following: O=C(O)c1ccc2nc(-c3cc(Cl)cc(Cl)c3)oc2c1 [tafamidis]
Out: ~0.02

====

- ASSAY PROTOCOL: In vitro rat liver S9 stability assay (formation of tafamidis)
- Assay type: in vitro ADME
- MEASUREMENT SETUP: rat liver S9, 1 μM test compound, 37° C.
ATTRIBUTE MEASURED: Formation of tafamidis at 60 min

| MOLECULE | Formation of tafamidis at 60 min |
| --- | --- |
| O=C(N[C@H]1CC[C@H](O)CC1)c1ccc2nc(-c3cc(Cl)cc(Cl)c3)oc2c1 | A (A is <25%) |
| O=C(c1ccc2nc(-c3cc(Cl)cc(Cl)c3)oc2c1)N(CCO)CC(F)F | A (A is <25%) |
| CC1(OC(=O)c2ccc3nc(-c4cc(Cl)cc(Cl)c4)oc3c2)CCN(CC(F)(F)F)C1 (centres unmarked) | A (A is <25%) |
| O=C(c1ccc2nc(-c3cc(Cl)cc(Cl)c3)oc2c1)N1CCCC1 | A (A is <25%) |
| O=C(OC1CCN(c2ccncc2)C1)c1ccc2nc(-c3cc(Cl)cc(Cl)c3)oc2c1 (centres unmarked) | A (A is <25%) |
| O=C(N[C@@H]1CC[C@H](O)C1)c1ccc2nc(-c3cc(Cl)cc(Cl)c3)oc2c1 (relative stereo) | A (A is <25%) |

Please find the next molecule below.
In: Specify Formation of tafamidis at 60 min for `O=C(c1ccc2nc(-c3cc(Cl)cc(Cl)c3)oc2c1)N1CC(F)(F)C[C@H]1CO` and stop.
Out: A (A is <25%)
